Data credit: patent US9717681B2

# test protocol: Protocol A: fipamezole administered orally in solution to healthy volunteers, pharmacokinetics, safety and tolerability
# Format: in vivo, human
# study conditions: male, human, plasma; oral solution, dose 30 mg
endpoint name: Tmax (h)
Report only the number, with the unit h understood.

Provide one value: measured Tmax of CCC1(c2c[nH]cn2)Cc2ccc(F)cc2C1.Cl (stereo not shown) 1.25

* * *

# test protocol: Protocol B: fipamezole administered as buccal spray to healthy volunteers, pharmacokinetics and tolerability
# Format: in vivo, human
# study conditions: male, human, plasma, dose 3 mg, read-out: t1/2 (converted)
endpoint name: half-life (h)
Please reply with the bare figure in h and do not write the unit itself.

Give half-life for CCC1(c2c[nH]cn2)Cc2ccc(F)cc2C1.Cl (stereo not shown) 1.6

* * *

# test protocol: Protocol A: fipamezole administered orally in solution to healthy volunteers, pharmacokinetics, safety and tolerability
# Format: in vivo, human
# study conditions: male, human, plasma; oral solution, dose 9 mg
endpoint name: half-life
Provide a numeric answer, followed by its unit.

Item CCC1(c2c[nH]cn2)Cc2ccc(F)cc2C1.Cl (stereo not shown) : provide half-life 2.2 h

* * *

# test protocol: Protocol A: fipamezole administered orally in solution to healthy volunteers, pharmacokinetics, safety and tolerability
# Format: in vivo, human
# study conditions: male, human, plasma; oral solution, dose 30 mg
endpoint name: half-life
Phrase the answer as number then unit, nothing more needed.

Quick one: give measured half-life for CCC1(c2c[nH]cn2)Cc2ccc(F)cc2C1.Cl (stereo not shown) 3.1 h

* * *

# test protocol: Protocol A: fipamezole administered orally in solution to healthy volunteers, pharmacokinetics, safety and tolerability
# Format: in vivo, human
# study conditions: male, human, plasma, po, 0.5 mg, human plasma
endpoint name: Cmax (ng/mL)
Only the number, expressed in ng/mL, is required.

Give a short answer stating reported Cmax for CCC1(c2c[nH]cn2)Cc2ccc(F)cc2C1.Cl (stereo not shown) . 0.05

* * *

# test protocol: Protocol A: fipamezole administered orally in solution to healthy volunteers, pharmacokinetics, safety and tolerability
# Assay type: in vivo, human
# study conditions: male, human, plasma, po, 1 mg, human plasma
endpoint name: Cmax (ng/mL)
Give a bare numeral; the unit ng/mL is implied.

Could you please provide reported Cmax for CCC1(c2c[nH]cn2)Cc2ccc(F)cc2C1.Cl (stereo not shown) [fipamezole] ? Thanks! 0.08

* * *

# test protocol: Protocol B: fipamezole administered as buccal spray to healthy volunteers, pharmacokinetics and tolerability
# Type: in vivo, human
# study conditions: male, human, plasma, dose 60 mg
endpoint name: AUC(0-t) (ng·h/mL)
Reply with just the number (in ng·h/mL).

// fetch AUC(0-t) given entry CCC1(c2c[nH]cn2)Cc2ccc(F)cc2C1.Cl (stereo not shown) [fipamezole] 231

* * *

# test protocol: Protocol A: fipamezole administered orally in solution to healthy volunteers, pharmacokinetics, safety and tolerability
# Type: in vivo, human
# study conditions: male, human, plasma; oral solution, dose 9 mg
endpoint name: Tmax

Tell us which Tmax value is on record for CCC1(c2c[nH]cn2)Cc2ccc(F)cc2C1.Cl (stereo not shown) 40.2 min

* * *

# test protocol: Protocol B: fipamezole administered as buccal spray to healthy volunteers, pharmacokinetics and tolerability
# Format: in vivo, human
# study conditions: male, human, plasma, dose 15 mg, read-out: t1/2 (converted)
endpoint name: half-life (h)
Unit h implied. Number only.

For the compound CCC1(c2c[nH]cn2)Cc2ccc(F)cc2C1.Cl (stereo not shown) , give its measured half-life value. 1.97

* * *

# test protocol: Protocol B: fipamezole administered as buccal spray to healthy volunteers, pharmacokinetics and tolerability
# Type: in vivo, human
# study conditions: male, dose 7.5 mg, human plasma, read-out: Cmax
endpoint name: Cmax (ng/mL)
Response body: numeric value in ng/mL, unit text excluded.

Retrieve Cmax measured for CCC1(c2c[nH]cn2)Cc2ccc(F)cc2C1.Cl (stereo not shown) and print it. 13

* * *

# test protocol: Protocol B: fipamezole administered as buccal spray to healthy volunteers, pharmacokinetics and tolerability
# Type: in vivo, human
# study conditions: male, human, plasma, dose 3 mg
endpoint name: AUC(0-t) (ng·h/mL)
Kindly provide the numeric value in ng·h/mL only, without the unit symbol.

Fill in reported AUC(0-t) for this entry: CCC1(c2c[nH]cn2)Cc2ccc(F)cc2C1.Cl (stereo not shown) [fipamezole] 15.4

* * *

# test protocol: Protocol A: fipamezole administered orally in solution to healthy volunteers, pharmacokinetics, safety and tolerability
# Assay type: in vivo, human
# study conditions: male, human, plasma; oral solution, dose 60 mg
endpoint name: Tmax (h)
Reply numerically in h, unit not repeated.

Query Tmax for CCC1(c2c[nH]cn2)Cc2ccc(F)cc2C1.Cl (stereo not shown) [fipamezole] 1.06

* * *

# test protocol: Protocol B: fipamezole administered as buccal spray to healthy volunteers, pharmacokinetics and tolerability
# Type: in vivo, human
# study conditions: male, human, plasma, dose 30 mg, read-out: t1/2 (converted)
endpoint name: half-life (h)
The reply should contain only the number, in h.

Given CCC1(c2c[nH]cn2)Cc2ccc(F)cc2C1.Cl (stereo not shown) , respond with its half-life. 2.12

* * *

# test protocol: Protocol A: fipamezole administered orally in solution to healthy volunteers, pharmacokinetics, safety and tolerability
# Type: in vivo, human
# study conditions: male, human, plasma, po, 18 mg, human plasma
endpoint name: Cmax (ng/mL)
Reply numerically in ng/mL, unit not repeated.

Tell me measured Cmax for CCC1(c2c[nH]cn2)Cc2ccc(F)cc2C1.Cl (stereo not shown) please. 1.31

* * *

# test protocol: Protocol A: fipamezole administered orally in solution to healthy volunteers, pharmacokinetics, safety and tolerability
# Assay type: in vivo, human
# study conditions: male, human, plasma, po, 3 mg, human plasma
endpoint name: Cmax (ng/mL)
Give a bare numeral; the unit ng/mL is implied.

Output Cmax of CCC1(c2c[nH]cn2)Cc2ccc(F)cc2C1.Cl (stereo not shown) 0.23

* * *

# test protocol: Protocol B: fipamezole administered as buccal spray to healthy volunteers, pharmacokinetics and tolerability
# Type: in vivo, human
# study conditions: male, human, plasma, dose 60 mg, read-out: tmax
endpoint name: Tmax (min)
Field: numeric (min). Do not append units.

Give the reported Tmax for this compound. CCC1(c2c[nH]cn2)Cc2ccc(F)cc2C1.Cl (stereo not shown) [fipamezole] 27.6

* * *

# test protocol: Protocol A: fipamezole administered orally in solution to healthy volunteers, pharmacokinetics, safety and tolerability
# Format: in vivo, human
# study conditions: male, human, plasma; oral solution, dose 18 mg
endpoint name: half-life (h)
Field: numeric (h). Do not append units.

Provide one value: measured half-life of CCC1(c2c[nH]cn2)Cc2ccc(F)cc2C1.Cl (stereo not shown) 2.4

* * *

# test protocol: Protocol B: fipamezole administered as buccal spray to healthy volunteers, pharmacokinetics and tolerability
# Format: in vivo, human
# study conditions: male, human, plasma, dose 1.5 mg
endpoint name: AUC(0-t)

Determine its reported AUC(0-t): CCC1(c2c[nH]cn2)Cc2ccc(F)cc2C1.Cl (stereo not shown) 9.99 ng·h/mL

* * *

# test protocol: Protocol B: fipamezole administered as buccal spray to healthy volunteers, pharmacokinetics and tolerability
# Type: in vivo, human
# study conditions: male, human, plasma, dose 60 mg, read-out: t1/2 (converted)
endpoint name: half-life (min)
Write the number in min without appending the unit.

Supply recorded half-life for CCC1(c2c[nH]cn2)Cc2ccc(F)cc2C1.Cl (stereo not shown) here. 180

* * *

# test protocol: Protocol A: fipamezole administered orally in solution to healthy volunteers, pharmacokinetics, safety and tolerability
# Assay type: in vivo, human
# study conditions: male, human, plasma; oral solution, dose 1 mg
endpoint name: Tmax (min)
Please state the figure in min; there is no need to write the unit.

Tell us which Tmax value is on record for CCC1(c2c[nH]cn2)Cc2ccc(F)cc2C1.Cl (stereo not shown) 49.8

* * *

# test protocol: Protocol B: fipamezole administered as buccal spray to healthy volunteers, pharmacokinetics and tolerability
# Assay type: in vivo, human
# study conditions: male, dose 0.75 mg, human plasma, read-out: Cmax
endpoint name: Cmax (ng/mL)
Kindly provide the numeric value in ng/mL only, without the unit symbol.

# return recorded Cmax for input CCC1(c2c[nH]cn2)Cc2ccc(F)cc2C1.Cl (stereo not shown) 1.53

* * *

# test protocol: Protocol B: fipamezole administered as buccal spray to healthy volunteers, pharmacokinetics and tolerability
# Type: in vivo, human
# study conditions: male, human, plasma, dose 3 mg, read-out: tmax
endpoint name: Tmax (min)
Kindly answer with a numeric value in min, unit omitted.

Determine its reported Tmax: CCC1(c2c[nH]cn2)Cc2ccc(F)cc2C1.Cl (stereo not shown) [fipamezole] 46.8

* * *

# test protocol: Protocol B: fipamezole administered as buccal spray to healthy volunteers, pharmacokinetics and tolerability
# Assay type: in vivo, human
# study conditions: male, dose 3 mg, human plasma, read-out: Cmax
endpoint name: Cmax (ng/mL)
Response body: numeric value in ng/mL, unit text excluded.

In one line, give reported Cmax of the entry CCC1(c2c[nH]cn2)Cc2ccc(F)cc2C1.Cl (stereo not shown) . 4.76

* * *

# test protocol: Protocol A: fipamezole administered orally in solution to healthy volunteers, pharmacokinetics, safety and tolerability
# Format: in vivo, human
# study conditions: male, human, plasma; oral solution, dose 9 mg
endpoint name: AUC(0-t) (ng·h/mL)
Field format: number, assumed ng·h/mL, no unit text.

Consider the molecule CCC1(c2c[nH]cn2)Cc2ccc(F)cc2C1.Cl (stereo not shown) and give its recorded AUC(0-t). 4.2
